- assay remarks: Pseudo first order rate constant of the beta-lactam ring cleavage determined from UV spectra (pH 10, 35 degree C)
- Type: ADME
endpoint label: k obs (h⁻¹)

Field: example entries. Status: answers known.
CO[C@@]1(NC(=O)Cc2ccccc2)C(=O)N2C(C(=O)[O-])=C(CC#N)CO[C@@H]21.[Na+]    0.234
COCC1=C(C(=O)[O-])N2C(=O)[C@](NC(=O)Cc3ccccc3)(OC)[C@H]2OC1.[Na+]    0.144

I. CO[C@@]1(NC(=O)Cc2ccccc2)C(=O)N2C(C(=O)[O-])=C(COC(C)=O)CO[C@@H]21.[Na+]
II. CO[C@@]1(NC(=O)Cc2ccccc2)C(=O)N2C(C(=O)[O-])=C(CSC)CO[C@@H]21.[Na+]
III. CO[C@@]1(NC(=O)Cc2ccccc2)C(=O)N2C(C(=O)[O-])=C(C)CO[C@@H]21.[Na+]
Number of molecules to sort: 3. Sort criterion: k obs, ascending. Would you mind listing the labels in the order asked for? III, II, I
(III: 0.0346 h⁻¹, II: 0.101 h⁻¹, I: 0.285 h⁻¹)

---

- assay remarks: Pseudo first order rate constant of the beta-lactam ring cleavage determined from 1H NMR spectra; value is corrected for parallel correction.
- Format: ADME
endpoint label: k obs (h⁻¹)
Numeric only. Scale: h⁻¹

k obs for CO[C@@]1(NC(=O)Cc2ccccc2)C(=O)N2C(C(=O)[O-])=C(COC(C)=O)CO[C@@H]21.[Na+] ? 0.308

---

- assay remarks: Pseudo first order rate constant of the beta-lactam ring cleavage determined from UV spectra (pH 10, 35 degree C)
- Format: ADME
endpoint label: k obs (h⁻¹)

CO[C@@]1(NC(=O)Cc2ccccc2)C(=O)N2C(C(=O)[O-])=C(COC(N)=O)COC21.[Na+] (some centres undefined)    0.23

I. CO[C@@]1([N-]C(=O)Cc2ccccc2)C(=O)N2C(C(=O)[O-])=C(C[n+]3ccccc3)CO[C@@H]21.[Na+]
II. CO[C@@]1(NC(=O)Cc2ccccc2)C(=O)N2C(C(=O)[O-])=C(CO)CO[C@@H]21.[Na+]
III. CO[C@@]1(NC(=O)Cc2ccccc2)C(=O)N2C(C(=O)[O-])=C(CSc3nnnn3C)CO[C@@H]21.[Na+]
In this exercise, place the 3 compounds in ascending sequence of their recorded k obs. Answer with the labels in sequence, matching the requested order. II, III, I
(II: 0.139 h⁻¹, III: 0.204 h⁻¹, I: 1.26 h⁻¹)

---

- assay remarks: Pseudo first order rate constant of the beta-lactam ring cleavage determined from 1H NMR spectra
- Type: ADME
endpoint label: k obs (h⁻¹)

CO[C@@]1(NC(=O)Cc2ccccc2)C(=O)N2C(C(=O)[O-])=C(C)CO[C@@H]21.[Na+]    0.0484

1. CO[C@@]1(NC(=O)Cc2ccccc2)C(=O)N2C(C(=O)[O-])=C(CSc3nnnn3C)CO[C@@H]21.[Na+]
2. CO[C@@]1([N-]C(=O)Cc2ccccc2)C(=O)N2C(C(=O)[O-])=C(C[n+]3ccccc3)CO[C@@H]21.[Na+]
So which one has the bigger k obs here, 1 or 2 ? Please respond with the label that marks your chosen entry. 2
(2: 1.39 h⁻¹, 1: 0.192 h⁻¹)

a. CO[C@@]1(NC(=O)Cc2ccccc2)C(=O)N2C(C(=O)[O-])=C(CC#N)CO[C@@H]21.[Na+]
b. CO[C@@]1(NC(=O)Cc2ccccc2)C(=O)N2C(C(=O)[O-])=C(COC(N)=O)COC21.[Na+] (some centres undefined)
c. CO[C@@]1(NC(=O)Cc2ccccc2)C(=O)N2C(C(=O)[O-])=C(CO)CO[C@@H]21.[Na+]
d. CO[C@@]1(NC(=O)Cc2ccccc2)C(=O)N2C(C(=O)[O-])=C(CSC)CO[C@@H]21.[Na+]
Task field, ranking: reported k obs, descending order. A complete answer lists every label in the requested sequence. b, a, c, d

Data origin, for the record: ChEMBL document CHEMBL1123696
